Overview of reported protease activity, referring to reference formulation at time 0 across a group of compounds:
# experimentalTarget: Savinase Ultra 16.0L (Lederbergia lenta)
# Construct: purchased Sigma-Aldrich
# Sequence (P29600 whole entry): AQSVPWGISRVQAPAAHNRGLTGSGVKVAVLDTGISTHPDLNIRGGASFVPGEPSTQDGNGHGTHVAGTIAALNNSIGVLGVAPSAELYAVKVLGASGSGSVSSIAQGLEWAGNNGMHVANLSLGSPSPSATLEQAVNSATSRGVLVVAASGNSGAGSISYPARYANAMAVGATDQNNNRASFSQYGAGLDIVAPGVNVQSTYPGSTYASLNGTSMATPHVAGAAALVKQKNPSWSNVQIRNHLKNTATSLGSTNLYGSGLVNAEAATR
# test: protease storage stability in liquid formulation (Suc-AAPF-pNA substrate)
# Type: biochemical
# conditionLabel: base formulation II., 1.5 wt % component (a), storage at 37° C., 28 d
Format: numeric value only, no unit, no commentary.

Reference set (3 entries):
compound="CCOC(=O)CC(O)(CC(=O)OCC)C(=O)OCC [A.1, Triethylcitrate]" experimentaltarget="Savinase Ultra 16.0L (Lederbergia lenta)" resultvalue=80
compound="O=C(CC(O)(CC(=O)OCc1ccccc1)C(=O)OCc1ccccc1)OCc1ccccc1 [A.8, Tribenzylcitrate]" experimentaltarget="Savinase Ultra 16.0L (Lederbergia lenta)" resultvalue=83
compound="CCCCOC(=O)CC(CC(=O)OCCCC)(OC(C)=O)C(=O)OCCCC [A.4, Acetyltributylcitrate]" experimentaltarget="Savinase Ultra 16.0L (Lederbergia lenta)" resultvalue=81

Proceeding to the next compound to report its protease activity, referring to reference formulation at time 0.
Query: Entry CCCOC(=O)CC(O)(CC(=O)OCCC)C(=O)OCCC [A.2, Tripropylcitrate] , system Savinase Ultra 16.0L (Lederbergia lenta): what protease activity, referring to reference formulation at time 0 was measured?
Reply: 83
